- experiment_description: folding enthalpy; higher = less favourable; fluorescence melt of hairpins on a sequencing array, two-state fit
- assay_conditions: sodium 0.088 M
Rule: folding enthalpy of -20 kcal/mol or more gives TRUE; anything lower gives FALSE.

INSERT INTO measurements (biosequence, category) VALUES
  ('GCGGTAGGAAACTATCGC (((.(((....))).)))', 'FALSE'),
  ('GCTGGGCGAAAGCATAGC (((..((....))..)))', 'FALSE'),
  ('CGCGGACGACTCCGCG ((((((....))))))', 'FALSE');

Request: folding enthalpy >= -20 kcal/mol for GGTATTCCGAAAGGAACC (((..(((....)))))) ?
Response: TRUE

Request: Check this sequence for folding enthalpy at or above -20 kcal/mol: GATCCTCCGAAGGATC ((((((....))))))
Response: TRUE

====

Measured folding enthalpy of individual entries
- experiment_description: folding enthalpy; higher = less favourable; fluorescence melt of hairpins on a sequencing array, two-state fit
- assay_conditions: sodium 0.088 M
Give a bare numeral; the unit kcal/mol is implied.

See these solved cases before continuing.
INSERT INTO results (biosequence, output_unit, result) VALUES
  ('GATCGAACGTCGATC ((((((...))))))', 'kcal/mol', -34.9),
  ('GTCTTCGAAAGAAGTGAC ((((((....)))..)))', 'kcal/mol', -13.3);

Request: # folding enthalpy lookup, item GGCCACGGAAACGTGGTC (.(((((....))))).)
Response: -25.7

Request: Field request: folding enthalpy | item: GTCCTAGGAAACTAGGGC (.(((((....))))).)
Response: -32.9

Request: Name the recorded folding enthalpy for GAAAGCGGAAACGCTCTC ((.((((....)))).)) .
Response: -12.3

Request: Record request: folding enthalpy value, item GTATTACGAAAGTACTAC (((.(((....))).)))
Response: -19.9

Request: Find the recorded folding enthalpy belonging to CGATTCGGAAACGACTCG (((.(((....))).))) and report it.
Response: -37.8

Request: Given the entry GGAATAGGAAACCATTCC (((((.(....).))))) , report its measured folding enthalpy.
Response: -25.7

Request: Given the sequence GCGCCAGGAAACCAGCGC ((((..(....)..)))) , what is its reported folding enthalpy?
Response: -26.4

Request: For GCAGGGCGAAAGCCGAGC ((..(((....)))..)) , what is its reported folding enthalpy?
Response: -14.9

Request: Consider the sequence shown here: GCCAGAGGAAACTTTGGC ((((.((....)).)))) What is its recorded folding enthalpy?
Response: -32.8

Request: Look up folding enthalpy: GACGCGCGAAAGCGGTC (((.(((....))))))
Response: -14

====

- experiment_description: melting temperature; fluorescence melt of hairpins on a sequencing array, two-state fit, raised by 9.35 °C to match UV melts
- assay_conditions: sodium 0.088 M
Recorded Tm, one value per entry.
State just the number; it will be interpreted in °C.

INSERT INTO measurements (biosequence, property_measured, result) VALUES
  ('GCAACCCGAAAGGGATGC (((.(((....))).)))', 'Tm', 63.5),
  ('GATCCACTCTGGATC ((((((...))))))', 'Tm', 52.4),
  ('GATCGATAGATCGATC ((((((....))))))', 'Tm', 61.1);

Now for another entry.
Request: Can you share its Tm? I mean this sequence: GCTTATGAAAATAAGC ((((((....))))))
Response: 51.6
